- TARGET ENTITY: SARS-COV-2RBD (SARS-CoV-2, UniProt P0DTC2 319-541)
- TEST DESCRIPTION: ELISA, RBD coated at 2 μg/mL, 293T transfection supernatant, anti-human IgG-ALP detection
VALUE TYPE: binding result

单抗11-CQTS055 (antibody, V domains shown, also called 实施例1的新冠病毒RBD特异性单克隆抗体) VH: EVQLVESGGGLVQPGGSLRLSCAASGFTFSNYDMHWVRQGTGKGLEWVSAIGTAGDTYYPGSVKGRFTISRENAKNSLYLQMNSLRAGDTALYYCARVGYYGSGSYPLYWYFDLWGRGTLVTVSS VL: DIQMTPSPSSLSASVGDRVTITCRASQSISIYLNWYQQKPGKAPKLLIYAASNLQSGVPSRFSGSGSGTEFTLTISSLQPEDFATYFCQQSYSAPPWTFGQGTRVEIR :: binds
